Source of measurements: PubChem BioAssay

Entries and their composite z-score values follow.
- Method: probe aShh binding to arrayed compounds – biochemical, biotinylated probe, 635/667 nm fluorescence, primary screen (AID 1114);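 further: probe is biotin-labelled aShh protein from a stem cell growth factor screen; measures binding of labelled protein to compounds printed on the slide; score merges feature fluorescence at 667 nm with signal-to-noise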
- Setup Conditions: small-molecule microarray, higher = more signal
Reply: number alone, nothing else.

These recorded examples may help you get a feel for the data.
C=CCOC(=O)[C@@]1(Cc2ccccc2)C[C@H]2CO[C@H](c3ccc(OC)cc3)N2C1=O :: -0.0035
C=CCN1Cc2ccccc2[C@@H]2OC(c3ccc(OCCCO)cc3)=N[C@]2(CC=C)C1=O :: 0.0469
COC(=O)[C@@]1(Cc2ccc(F)cc2)[C@H]2c3cc(C(=O)N4CCCC4)n(Cc4ccc(C)c(F)c4F)c3C[C@H]2CN1C(=O)c1ccccc1 :: -0.0813
[N-]=[N+]=Nc1ccccc1C[C@@]1(C(N)=O)N=C(c2ccc(OCCCO)cc2)O[C@@H]1c1ccccc1N=[N+]=[N-] :: 0.0948
CN(C)C(=O)[C@@]1(Cc2ccccc2CN=[N+]=[N-])N=C(c2ccc(OCCCO)cc2)O[C@H]1c1ccccc1N=[N+]=[N-] :: -0.138

Recorded composite z-score for `COc1ccc([C@H]2OC[C@@H]3C[C@H](Cc4ccccc4)C(=O)N32)cc1` , please? 0.111

Sample `COC(=O)[C@@H]1N=C(c2ccc(OCCCO)cc2)O[C@@H]1c1ccccc1` — what was its composite z-score? -0.0709

Would you kindly share the measured composite z-score for [N-]=[N+]=Nc1ccccc1C[C@]1(C(=O)NCC(O)CO)COC(c2ccc(OCCCO)cc2)=N1 (some centres undefined) ? 0.275

Given the compound O=C1OCCC=C[C@H]2OC34C=CCN(Cn5nnc6ccccc65)C(=O)[C@H]3N(CCCO)C(=O)[C@@H]4C12 (some centres undefined) , what is its reported composite z-score? -0.388

State the recorded composite z-score for this entry: `CCCCCCc1nc(Cc2cc(OC)c(OC)c(OC)c2)cc2c1[Si](C(C)C)(C(C)C)OC2` -0.214

Looking for the measured composite z-score of `O=C1O[C@@H](c2ccccc2)[C@@H](c2ccccc2)N2[C@@H](c3ccc(OCCO)cc3)[C@]3(C(=O)Nc4ccc(C#CC5=CCCCC5)cc43)[C@@H](C(=O)NC[C@H](O)c3ccccc3)[C@H]12` , can you help? -0.398

So what's the measured composite z-score for this one? `COc1ccc(CCNC(=O)[C@@]2(c3ccc([N+](=O)[O-])cc3)CC(=O)N(C3CCCCC3)[C@@H]2c2ccc(CO)cc2)cc1` -0.0886

Fill in: composite z-score of CC(C)c1ccc(NN2C(C(O)c3ccc(C#N)cc3)C=CC3C(=O)N(c4ccccc4)C(=O)C32)cc1 (centres undefined) is ___ 0.19

GET /values?readout=composite z-score&item= `COc1cccc(C)c1NC(=O)O[C@H]1[C@H](OC(=O)Nc2ccccc2-c2ccccc2)[C@H](OC(=O)Nc2ccccc2-c2ccccc2)[C@@H](OC)O[C@@H]1CO` -0.0192

Field request: composite z-score | item: `NC(=O)NCC#Cc1ccc2c(c1)[C@]1(C(=O)N2)[C@H](C(=O)N2CCN(c3ncccn3)CC2)[C@H]2C(=O)O[C@H](c3ccccc3)[C@H](c3ccccc3)N2[C@@H]1c1ccc(O)cc1` 0.296

Give its composite z-score value. Item: `COc1ccc(C#Cc2ccc3c(c2)[C@]2(C(=O)N3)[C@H](C(=O)O)[C@H]3C(=O)O[C@H](c4ccccc4)[C@H](c4ccccc4)N3[C@@H]2c2ccc(O)cc2)cc1` 0.214

// lookup composite z-score for `C=CCNC(=O)[C@@H]1[C@H]2C(=O)O[C@H](c3ccccc3)[C@H](c3ccccc3)N2[C@H](c2ccccc2OCCO)[C@@]12C(=O)Nc1ccc(C#CCCO)cc12` -0.273

Look at this compound and give its reported composite z-score. `COC(=O)[C@@]1(Cc2ccc(F)cc2)[C@H]2c3cc(C(=O)N4CCCC4)n(CCc4c[nH]c5ccccc45)c3C[C@H]2CN1C(=O)c1ccccc1` 0.582

Report composite z-score for `CCOC(=O)C=Cc1cccc(C)c1O` please. -0.0769

---

- Method: basal CRE-LacZ reporter activity in PC12 – cell-based, unstimulated, primary screen (AID 1145)
- Setup Conditions: no forskolin, luminescence, 4.5 h, higher = more signal, called active from +8 up or from −8 down
If the reported z-score equals or exceeds 0.07, assign rule met. If not, assign rule not met.

COc1cc(NN2C(C(O)c3cc(OC)c(OC)c(OC)c3)C=CC3C(=O)N(C)C(=O)C32)cc(OC)c1OC (centres undefined) :: rule met
CN(C)c1ccc(C(O)C2C=CC3C(=O)NC(=O)C3N2Nc2ccccn2)cc1 (centres undefined) :: rule not met
COCCOC(=O)N1C(=O)[C@@]2(c3cc(C#CC4(O)CCCCCC4)ccc31)[C@H](c1ccc(O)cc1)N1[C@H](c3ccccc3)[C@H](c3ccccc3)OC(=O)[C@H]1[C@@H]2C(=O)N1CCN(c2ncccn2)CC1 :: rule not met
NCCCCCNC(=O)[C@@H]1C[C@@H]2C(=O)N[C@@H](CCCCN)C(=O)N2[C@@H]1c1ccc(O)cc1 :: rule not met
CO[C@H]1O[C@H](CO)[C@@H](OC(=O)Nc2ccc3c(c2)OCO3)[C@H](OC(=O)Nc2ccc3c(c2)OCO3)[C@@H]1OC(=O)Nc1ccc2c(c1)OCO2 :: rule met

Can `COC(=O)[C@@]1(Cc2ccccc2)[C@H]2c3cc(C(=O)N4CCCC4)n(CCc4ccccn4)c3C[C@H]2CN1C(=O)c1ccccc1` be said to have z-score at or above 0.07? rule met

Is z-score for CC1CC/C=C\[C@H]2OC34C=CCN(C(C)C)C(=O)[C@H]3N(CCO)C(=O)[C@@H]4C2C(=O)O1 (some centres undefined) at or above 0.07? rule not met

Answer whether z-score of CC(c1ccccc1)C(O)C1C=CC2C(=O)N(C)C(=O)C2N1Nc1ccccc1 (centres undefined) is greater than or equal to 0.07. rule not met

Assess whether reported z-score for `Cc1ccc(S[C@]2(C(=O)NC(C)C)CC(=O)N(Cc3cc(C(F)(F)F)cc(C(F)(F)F)c3)[C@@H]2c2ccc(CO)cc2)cc1` sits at 0.07 or higher. rule not met

Does the reported z-score for `CCOC(=O)C[C@H]1[C@H](OC(=O)Cc2ccc3c(c2)OCO3)[C@@H](NC(=O)C2CCCCC2)c2cc(OCCCO)ccc2N1C(=O)c1ccccc1` fall at or above the 0.07 mark? rule met

---

Entries annotated with measured composite z-score
- Method: probe aCHRDL2 binding to arrayed compounds – biochemical, biotinylated probe, 635/667 nm fluorescence, primary screen (AID 1100)
- Setup Conditions: small-molecule microarray, higher = more signal

Observe how each entry below is paired with its result.
COc1ccc([Si](C)(C)[C@@H]2[C@@H](CC(=O)N3Cc4ccccc4C[C@H]3CO)O[C@]3(C(=O)N(Cc4ccc(N5C(=O)c6cccc7cccc5c67)cc4)c4ccccc43)[C@H]2C)cc1 :: -0.0445
CCOC(=O)C[C@H]1[C@H](OC(=O)c2ccc(C(=O)c3ccccc3)cc2)[C@@H](NC(=O)c2ccc(-c3ccccc3)cc2)c2cc(OCCCO)ccc2N1C(=O)Cc1ccc(OC)cc1 :: 0.777
COc1ccc([Si](C)(C)[C@@H]2[C@@H](CCO)O[C@]3(C(=O)N(Cc4ccccc4)c4ccc(N5C(=O)c6cccc7cccc5c67)cc43)[C@H]2C)cc1 :: 0.42
Cc1ccc(S[C@]2(C(=O)NC(C)C)CC(=O)N(Cc3cc(C(F)(F)F)cc(C(F)(F)F)c3)[C@@H]2c2ccc(CO)cc2)cc1 :: 0.675
N[C@@H](Cc1ccccc1)C(=O)NCc1cn(Cc2ccccc2)nn1 :: -0.283
C=CC[C@]1(C(=O)N2CCCCC2)N=C(c2ccc(OCCCO)cc2)O[C@H]1c1ccccc1CN=[N+]=[N-] :: 0.622
COc1ccc(C(=O)Nc2ccc(CN3C(=O)[C@]4(O[C@H](CC(=O)N5Cc6ccccc6C[C@H]5CO)[C@@H]([Si](C)(C)c5ccc(OC)cc5)[C@@H]4C)c4ccccc43)cc2)cc1 :: -0.165
COc1cc(NN2C(C(O)c3ccco3)C=CC3C(=O)N(C)C(=O)C32)cc(OC)c1OC (stereo not given) :: 0.469

Entry under review: `COc1ccc([C@H]2OC[C@@H]3C[C@H](Cc4ccccc4)C(=O)N32)cc1` . Reported composite z-score? -0.598

Given the molecule `CCOC(=O)C[C@H]1[C@H](OC(=O)c2ccccc2-c2ccccc2)[C@@H](NC(=O)c2ccc3ccccc3n2)c2cc(OCCCO)ccc2N1C(=O)Cc1ccc(OC)cc1` , what is its reported composite z-score? -0.302

Query: composite z-score; subject: `COC(=O)C/C=C/C[C@]1(O)C(=O)N(C)c2ccccc21` -0.802

Bench note: what composite z-score did O=C1C2C=CC(C(O)C3CC=CCC3)N(Nc3ccccc3)C2C(=O)N1c1ccccc1 (stereo not given) show? 1.12

What does the data say about its composite z-score? Entry: Cc1ccc(NN2C(C(O)c3c(F)cccc3Cl)C=CC3C(=O)N(C4CCCCC4)C(=O)C32)cc1 (stereo not given) 1.07

Bench note: what composite z-score did `CC(C)[Si]1(C(C)C)OCc2cc(C3CC3)nc(-c3ccc(Oc4ccccc4)cc3)c21` show? 0.056

What composite z-score value was documented for this molecule, C=CCC(OC(C)=O)[C@@H]1[C@@H](N(Cc2ccc(-c3cccc(C(F)(F)F)c3)o2)C(=O)c2ccc(-c3ccccc3)cc2)c2cc(OCCCO)ccc2N1C(=O)Cc1ccc2ccccc2c1 (stereo not given in full) ? 0.532
